# System name: T1, ANTIBODY EXPRESSION CONTROL
# T1 construct: also called mouse anti-canine antibody (capture reagent of the expression control ELISA)
# Experiment description: SPR Biacore, expression control
Observable: koff (s⁻¹)
Field: numeric (s⁻¹). Do not append units.

1) Mu_10F07_VH (SEQ ID NO: 39)_D99A (antibody, V domains shown) VH: DVKLVESGEGLVKPGGSLKLSCAASGFTFSSYAMSWVRQTPEKRLEWVTYISSGGDYFYYADTVKGRFTISRDNARNTLYLQMSSLKSEDTAMYYCTRAPITGTFAYWGQGTLVTVSA VL: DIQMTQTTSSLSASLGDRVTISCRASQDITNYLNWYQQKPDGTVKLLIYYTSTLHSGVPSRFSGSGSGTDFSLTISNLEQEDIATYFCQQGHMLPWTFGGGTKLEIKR : 0.000118
2) Mu_09E09_VL (SEQ ID NO: 37)_Y50A (antibody, V domains shown) VH: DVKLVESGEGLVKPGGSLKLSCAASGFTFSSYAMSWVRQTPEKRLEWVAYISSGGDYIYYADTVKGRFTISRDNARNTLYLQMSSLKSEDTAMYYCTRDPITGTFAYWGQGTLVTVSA VL: DLQMTQTTSSLSASLGDRVTISCRASQDINNYLNWYQQKPDGTVKLLIYATSTLHSGVPSRFSGSGSGTDYSLTISNLEQEDIATYFCQQGNTLPWTFGGGTKLEIKR : 7.96e-05

Turning now to a further record.
**Query** Need koff of Mu_09E09_VH (SEQ ID NO: 35)_I101A (antibody, V domains shown) VH: DVKLVESGEGLVKPGGSLKLSCAASGFTFSSYAMSWVRQTPEKRLEWVAYISSGGDYIYYADTVKGRFTISRDNARNTLYLQMSSLKSEDTAMYYCTRDPATGTFAYWGQGTLVTVSA VL: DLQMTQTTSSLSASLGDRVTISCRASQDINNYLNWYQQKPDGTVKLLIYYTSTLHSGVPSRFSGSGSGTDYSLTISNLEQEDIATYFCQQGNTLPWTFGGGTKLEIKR , thanks.
**Result** 5.4e-05
